Overview of reported combination Emax across a group of molecules:
test system: MEL-JUSO (Melanoma); assay: combination Emax (second highest fraction inhibited in the dose matrix, 72 h); higher = more inhibition; extreme values may be limits of the assay
Write the value as a bare number.

COc1cccc2c1C(=O)c1c(O)c3c(c(O)c1C2=O)C[C@@](O)(C(=O)CO)C[C@@H]3O[C@H]1C[C@H](N)[C@H](O)[C@H](C)O1 [Doxorubicin] + Cc1cc2ncnn2cc1Nc1ncc2c(n1)n(C1CCOCC1)c(=O)n2C [AZD7648] (first compound max 1 µM, 7x7, partner max 10 µM): 0.328

Next item in the queue.
Quote MEL-JUSO (Melanoma) combination Emax for entry Cc1c2c(nn1C)CSCc1cc(n(C)n1)CSc1cc(c3ccccc3c1)OCCCc1c(C(=O)O)n(C)c3c-2c(Cl)ccc13 [AZD5991] + CC1(C)CCC(CN2CCN(c3ccc(C(=O)NS(=O)(=O)c4ccc(NCC5CCOCC5)c([N+](=O)[O-])c4)c(Oc4cnc5[nH]ccc5c4)c3)CC2)=C(c2ccc(Cl)cc2)C1 [Venetoclax] (first compound max 1 µM, 7x7, partner max 1 µM) .
0.339
